Target: Bcl-2 G101V (Homo sapiens, UniProt P10415, G101V)
Assay: Bcl-2 G101V inhibition, fluorescence polarization (Flu-BIM tracer) binding assay
QUANTITY_KIND: IC50

Ask: Quote IC50 with test system Bcl-2 G101V (Homo sapiens, UniProt P10415, G101V) for CC1(C)CCC(CN2CCN(c3ccc(C(=O)NS(=O)(=O)c4ccc(NC[C@H]5COCCO5)c([N+](=O)[O-])c4)c(Oc4cnc5[nH]ccc5c4)c3)CC2)=C(c2cc(C(=O)Nc3ccccc3)cs2)C1 [Example 17]
Reply: 49.5 nM

====

Items are presented alongside their recorded IC50.
Target: Bcl-2 G101V (Homo sapiens, UniProt P10415, G101V)
Assay: Bcl-2 G101V inhibition, fluorescence polarization (Flu-BIM tracer) binding assay
Conditions: FP; 20 nM Bcl2, 5 nM Flu-BIM, 1 h incubation; read-out: Bcl-2 G101V (FP)
Response body: numeric value in nM, unit text excluded.

Example cases with answers are listed next.
{"COMPOUND": "CC1(C)CCC(CN2CCN(c3ccc(C(=O)NS(=O)(=O)c4ccc(NC[C@H]5CC[C@](C)(O)CC5)c([N+](=O)[O-])c4)c(Oc4cnc5[nH]ccc5c4)c3)CC2)=C(c2cc(-c3ccc(C(O)(C(F)(F)F)C(F)(F)F)cc3)cs2)C1 [Example 60]", "TARGET_OR_SYSTEM": "Bcl-2 G101V (Homo sapiens, UniProt P10415, G101V)", "IC50 / nM": 34.1}
{"COMPOUND": "CCC(O)(CC)c1cc(F)c(-c2csc(C3=C(CN4CCN(c5ccc(C(=O)NS(=O)(=O)c6ccc(NC[C@H]7CC[C@](C)(O)CC7)c([N+](=O)[O-])c6)c(Oc6cnc7[nH]ccc7c6)c5)CC4)CCC(C)(C)C3)c2)c(F)c1 [Example 67]", "TARGET_OR_SYSTEM": "Bcl-2 G101V (Homo sapiens, UniProt P10415, G101V)", "IC50 / nM": 33.7}

Ask: Give recorded IC50. CC1(C)CCC(CN2CCN(c3ccc(C(=O)NS(=O)(=O)c4ccc(NCC5CCOCC5)c([N+](=O)[O-])c4)c(Oc4cnc5[nH]ccc5c4)c3)CC2)=C(c2cc(-c3ccccc3)cs2)C1 [Example 34]
Reply: 47.9

Ask: Tell us which IC50 value is on record for CC1(C)CCC(CN2CCN(c3ccc(C(=O)NS(=O)(=O)c4ccc(NCC5CCOCC5)c([N+](=O)[O-])c4)c(Oc4cnc5[nH]ccc5c4)c3)CC2)=C(c2ccc(CN3CCOCC3)s2)C1 [Example 26]
Reply: 57.8
